Test system: control Gram-negative E. coli 25922 strain
Assay: Antibacterial activity, microbroth dilution MIC, E. coli 25922
Type: cell-based, Escherichia coli
Details: Escherichia coli; E. coli 25922, microbroth dilution; read-out: MIC, 25922
Readings of MIC for the listed molecules

Record excerpt, results attached:
molecule	measuredResult
CCc1cc(C(=O)O)c(=O)[nH]c1-c1ccc(N(C)C)cc1	< 1 mg/L
CCc1cc(C(=O)O)c(=O)[nH]c1-c1ccc(N2CCC(CNCc3ccccc3)C2)cc1.Cl (stereo not drawn)	< 1 mg/L
CCc1cc(C(=O)O)c(=O)[nH]c1-c1ccc(N2CC(n3nnc(C)n3)C2)cc1	12.5 to 150 mg/L
CCc1c(-c2ccc(C3=CCN(C)CC3)cc2)[nH]c(=O)c(C(=O)O)c1O	3.5 to 12.5 mg/L
CCc1cc(C(=O)O)c(=O)[nH]c1-c1ccc(N2CC(N)C2)cc1	12.5 to 150 mg/L
CCc1cc(C(=O)O)c(=O)[nH]c1-c1ccc(CN(C)C)n1C	12.5 to 150 mg/L
Cc1c(-c2ccc(N3CCC(N(C)C)C3)cn2)[nH]c(=O)c(C(=O)O)c1O (stereo not drawn)	12.5 to 150 mg/L
O=C(O)c1cc(C2CC2)c(-c2ccc(N3CCCC3)cc2)[nH]c1=O	1 to 3.5 mg/L
CCc1cc(C(=O)O)c(=O)[nH]c1-c1cc(CN2CCCCC2)n(C)c1	12.5 to 150 mg/L
CCc1cc(C(=O)O)c(=O)[nH]c1-c1ccc(N2CCNCC2)c(F)c1.O=C(O)C(F)(F)F	12.5 to 150 mg/L

Query: MIC; subject: CCc1c(-c2ccc(N3C[C@H]4CC[C@H](NC)[C@H]4C3)cc2)[nH]c(=O)c(C(=O)O)c1O.Cl 3.5 to 12.5 mg/L

Fill in the blank: the reported MIC of CCc1cc(C(=O)O)c(=O)[nH]c1-c1ccc(-c2nnn[nH]2)cc1 is ____. 12.5 to 150 mg/L

Returns the measured MIC for the input molecule. Input: Cc1cc(C(=O)O)c(=O)[nH]c1-c1ccc(N2CCOCC2)c(F)c1 12.5 to 150 mg/L

MIC for CCc1c(-c2ccc(N(C)C)cc2)[nH]c(=O)c(C(=O)O)c1OC ? 12.5 to 150 mg/L

Fill in: MIC of CCc1cc(C(=O)O)c(=O)[nH]c1-c1ccc(N2CC[C@@H](N(C)C)C2)cc1.O=C(O)C(F)(F)F is ___ 1 to 3.5 mg/L

###

Listing of entries alongside the reported MIC.
Tested on: quinolone resistant E. coli LZ3111
Assay: Antibacterial activity, MIC, quinolone resistant E. coli LZ3111
Type: cell-based, Escherichia coli
Conditions: Escherichia coli, read-out: MIC, LZ3111

These recorded examples may help you get a feel for the data.
molecule	MIC
CCc1c(-c2ccc(N3CCC(N(C)C)C3)cc2)[nH]c(=O)c(C(=O)O)c1O.Cl (stereo not shown)	1 to 3.5 mg/L
CCc1c(-c2ccc(N3CCCC3=O)cc2)[nH]c(=O)c(C(=O)O)c1O	12.5 to 150 mg/L
CCc1c(-c2ccc(N3CCC(N(C)C)C3)nc2)[nH]c(=O)c(C(=O)O)c1O (stereo not shown)	< 1 mg/L

Consider now this further molecule.
Would you kindly share the measured MIC for CCc1c(-c2ccc(N3C[C@H]4CC[C@@H](N)[C@H]4C3)cc2)[nH]c(=O)c(C(=O)O)c1O.Cl ? 1 to 3.5 mg/L

###

Test system: super sensitive Gram-negative Escherichia coli (E. coli) BAS849
Assay: Antibacterial activity, microbroth dilution MIC, E. coli BAS849
Format: cell-based
Conditions: Escherichia coli, read-out: MIC, BAS849
quantityName: MIC

molecule	MIC
CCc1cc(C(=O)O)c(=O)[nH]c1-c1ccc(N2CCC[C@H]2CN2CCCC2)cc1.O=C(O)C(F)(F)F [Cpd 143]	3.5 to 12.5 µg/mL
CCc1c(-c2ccc(N3CC4CCCCC4(C#N)C3)cc2)[nH]c(=O)c(C(=O)O)c1O.O=C(O)C(F)(F)F (centres unmarked) [Cpd 276]	< 1 µg/mL
CCc1cc(C(=O)O)c(=O)[nH]c1-c1ccc(N2C[C@H]3CCCC[C@@]3(CN(C)C)C2)cc1.O=C(O)C(F)(F)F [Cpd 205]	1 to 3.5 µg/mL
CCc1c(-c2ccc(N3CC4CC3CN4C(=O)OC(C)(C)C)cc2)[nH]c(=O)c(C(=O)O)c1O (centres unmarked) [Cpd 294]	< 1 µg/mL
CCc1cc(C(=O)O)c(=O)[nH]c1-c1ccc(N2CCC(CN)C2)cc1.O=C(O)C(F)(F)F (centres unmarked) [Cpd 188]	< 1 µg/mL

Please look up its MIC: CCc1cc(C(=O)O)c(=O)[nH]c1-c1ccc(N2CCC(N)C2)cc1.O=C(O)C(F)(F)F (centres unmarked) [Cpd 131] < 1 µg/mL

What does the data say about its MIC? Entry: CCc1cc(C(=O)O)c(=O)[nH]c1-c1ccc(N2CC3CC2CN3C(=O)OC(C)(C)C)cc1 (centres unmarked) [Cpd 137] < 1 µg/mL

Please give the measured MIC for this molecule: CCc1cc(C(=O)O)c(=O)[nH]c1-c1ccc(N2C[C@@H]3CCC[C@]3(C(=O)O)C2)cc1.O=C(O)C(F)(F)F [Cpd 220] 3.5 to 12.5 µg/mL

Which MIC value is on record for CCc1cc(C(=O)O)c(=O)[nH]c1-c1ccc(N2CCC(N3CCOCC3)C2)cc1.O=C(O)C(F)(F)F (centres unmarked) [Cpd 140] ? < 1 µg/mL

Given the molecule CCc1cc(C(=O)O)c(=O)[nH]c1-c1ccc(N2C[C@H]3CCN[C@H]3C2)cc1.O=C(O)C(F)(F)F [Cpd 190] , what is its reported MIC? 1 to 3.5 µg/mL

Recorded MIC of CCc1cc(C(=O)O)c(=O)[nH]c1-c1ccc(N2C[C@H]3CCC[C@@H](N(Cc4ccccc4)Cc4ccccc4)[C@H]3C2)cc1.O=C(O)C(F)(F)F [Cpd 196] , please. 12.5 to 150 µg/mL

# get_value(readout='MIC', item= CCc1cc(C(=O)O)c(=O)[nH]c1-c1ccc(N2CC[C@@H](N(C)C)C2)cc1.O=C(O)C(F)(F)F [Cpd 150] ) < 1 µg/mL

Return reported MIC; argument: CCc1cc(C(=O)O)c(=O)[nH]c1-c1ccc(N2CCO[C@H]3CNC[C@H]32)cc1.O=C(O)C(F)(F)F [Cpd 186] 12.5 to 150 µg/mL

For the molecule CCc1cc(C(=O)O)c(=O)[nH]c1-c1ccc(N2C[C@H]3CC[C@H](N=[N+]=[N-])[C@H]3C2)cc1.O=C(O)C(F)(F)F [Cpd 245] , what MIC is on record? < 1 µg/mL

###

The entries below are paired with their reported MIC.
System: super sensitive Gram-negative Escherichia coli (E. coli) BAS849
Test: Antibacterial activity, microbroth dilution MIC, E. coli BAS849
Assay type: cell-based
Settings: Escherichia coli; E. coli BAS849, microbroth dilution; read-out: MIC, BAS849

compound	quantityName	measuredResult
CCc1cc(C(=O)O)c(=O)[nH]c1-c1ccc(N2CCC(F)C2)cc1 (stereo not drawn)	MIC	< 1 µg/mL
CCc1cc(C(=O)O)c(=O)[nH]c1-c1ccc(N2CCC(CNCc3ccccn3)C2)cc1 (stereo not drawn)	MIC	< 1 µg/mL
CCc1cc(C(=O)O)c(=O)[nH]c1-c1ccc(N2C[C@H]3C[C@H](N)[C@H]3C2)cc1.Cl	MIC	< 1 µg/mL
CCc1cc(C(=O)O)c(=O)[nH]c1-c1ccc(N2CCC(N(C)C)CC2)cc1	MIC	12.5 to 150 µg/mL
CCc1cc(C(=O)O)c(=O)[nH]c1-c1ccc(I)cc1	MIC	3.5 to 12.5 µg/mL

Need MIC, item CCc1cc(C(=O)O)c(=O)[nH]c1-c1ccc(CN(C)C)n1C 12.5 to 150 µg/mL

Which MIC is listed for CCc1cc(C(=O)O)c(=O)[nH]c1-c1ccc(N2C(=O)C3C=CC2C3)cc1 (stereo not drawn) ? 1 to 3.5 µg/mL

Tell me the measured MIC of CCc1c(-c2ccc(N3CC4CC4(N)C3)cc2)[nH]c(=O)c(C(=O)O)c1O.Cl (stereo not drawn) , please. < 1 µg/mL

Recorded MIC of CCc1c(-c2ccc(N(C)C)c(F)c2)[nH]c(=O)c(C(=O)O)c1O , please. < 1 µg/mL

For CCc1cc(C(=O)O)c(=O)[nH]c1-c1ccc(N2CCCCC2)cc1OC , what is its reported MIC? 12.5 to 150 µg/mL

###

Entries and their MIC values follow.
Tested on: Neisseria meningitidis (N. meningitidis) 13090
Test: Antibacterial activity, MIC, N. meningitidis 13090
Format: cell-based
Conditions: Neisseria meningitidis; N. meningitidis 13090; read-out: MIC 13090

compound	MIC
CCc1c(-c2ccc(N3C[C@H]4CCC[C@@H](N)[C@H]4C3)cc2)[nH]c(=O)c(C(=O)O)c1O.O=C(O)C(F)(F)F	1 to 3.5 µg/mL

Entry CCc1cc(C(=O)O)c(=O)[nH]c1-c1ccc(N2CCCC2c2nccs2)cc1 (stereo not shown) : reported MIC = ? < 1 µg/mL

What measured MIC goes with CCc1c(-c2ccc(N3C[C@H]4CCN[C@H]4C3)cc2)[nH]c(=O)c(C(=O)O)c1O.Cl ? 1 to 3.5 µg/mL

Param item = C=CCN(CC=C)c1ccc(-c2[nH]c(=O)c(C(=O)O)c(O)c2CC)cc1 ; retrieve measured MIC. < 1 µg/mL
